assayed.system: T1, orthogonal hCD122 receptor (hoRb), hCD122 with H133D and Y134F (human, UniProt P14784 27-550)
T1 sequence: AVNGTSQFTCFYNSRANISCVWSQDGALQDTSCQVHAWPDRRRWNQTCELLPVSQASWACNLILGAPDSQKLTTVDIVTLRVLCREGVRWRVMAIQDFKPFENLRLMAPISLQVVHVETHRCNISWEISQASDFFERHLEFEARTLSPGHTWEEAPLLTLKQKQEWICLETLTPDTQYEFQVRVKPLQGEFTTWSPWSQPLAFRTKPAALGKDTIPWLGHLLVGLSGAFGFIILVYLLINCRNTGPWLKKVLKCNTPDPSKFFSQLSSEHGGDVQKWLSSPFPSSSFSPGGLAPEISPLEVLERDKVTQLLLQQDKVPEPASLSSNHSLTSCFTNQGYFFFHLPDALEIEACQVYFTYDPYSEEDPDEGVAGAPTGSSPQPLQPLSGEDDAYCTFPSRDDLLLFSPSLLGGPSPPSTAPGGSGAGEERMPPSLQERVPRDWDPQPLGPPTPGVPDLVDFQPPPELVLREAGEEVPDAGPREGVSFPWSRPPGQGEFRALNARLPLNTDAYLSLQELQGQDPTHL
assay.remarks: cell-based or functional assay
// reported NKL Ortho Proliferation Signal 1:2 for each item listed
property.name: NKL Ortho Proliferation Signal 1:2

binder: L18G, SQVLKA (ligand) APTSSSTKKTQLQLSQLGVLLKAILNGINNYKNPKLTRMLTFKFYMPKKATELKHLQCLEEELKPLEEVLNLAQSKNFHLRPRDLISNINVIVLELKGSETTFMCEYADETATIVEFLNRWITFCQSIISTLT
observed.result: 15400
//
binder: ΔT3, SQVLKA (ligand) APSSSTKKTQLQLSQLLVLLKAILNGINNYKNPKLTRMLTFKFYMPKKATELKHLQCLEEELKPLEEVLNLAQSKNFHLRPRDLISNINVIVLELKGSETTFMCEYADETATIVEFLNRWITFCQSIISTLT
observed.result: 60800
